tested_target: Menin-MLL (Homo sapiens)
Construct: His-Menin (M1-L615 end); purchased BIORTUS BP9210
Sequence (O00255 1-615 isoform O00255-1): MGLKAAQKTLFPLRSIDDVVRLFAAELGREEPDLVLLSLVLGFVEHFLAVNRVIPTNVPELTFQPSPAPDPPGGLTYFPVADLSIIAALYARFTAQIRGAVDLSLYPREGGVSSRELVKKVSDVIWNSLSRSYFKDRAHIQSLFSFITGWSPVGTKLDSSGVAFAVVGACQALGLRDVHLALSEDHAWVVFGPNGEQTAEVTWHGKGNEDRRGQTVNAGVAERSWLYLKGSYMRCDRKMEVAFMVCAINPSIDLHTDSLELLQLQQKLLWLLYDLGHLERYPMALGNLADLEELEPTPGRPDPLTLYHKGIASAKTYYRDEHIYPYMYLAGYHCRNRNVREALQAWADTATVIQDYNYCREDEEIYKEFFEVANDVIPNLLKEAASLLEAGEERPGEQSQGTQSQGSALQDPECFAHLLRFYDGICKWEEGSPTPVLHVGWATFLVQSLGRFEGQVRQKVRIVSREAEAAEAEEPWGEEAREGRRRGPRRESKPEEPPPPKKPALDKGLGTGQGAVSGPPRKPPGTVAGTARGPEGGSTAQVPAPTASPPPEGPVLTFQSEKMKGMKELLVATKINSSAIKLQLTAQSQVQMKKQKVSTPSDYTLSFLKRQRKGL
assay_protocol: Inhibitory activity against Menin-MLL binding (fluorescence polarization)
measurement_context: fluorescence polarization; 150 nM His-Menin, 15 nM FITC-MLL; 25°C for 60 min; read-out: Menin-MLL IC50
measurement_label: IC50 (nM)

# annotated cases, reported IC50 shown
{"compound": "CCN(C(=O)c1cc(F)ccc1-c1cc(C2CN([C@H](CN3CCN(CCO)CC3)C(C)C)C2)cn2c(C)ncc12)C(C)C", "uom": "nM", "IC50": 3.9}
{"compound": "CCN(C(=O)c1cc(F)ccc1-c1cc(C2CN(C(CCCN3C[C@H]4C[C@@H]3CO4)C(C)C)C2)cc2c(C)ncn12)C(C)C (stereo partly drawn)", "uom": "nM", "IC50": 3.1}
{"compound": "CCN(C(=O)c1cc(F)ccc1-c1cc(C2CCN(C[C@H]3CC[C@H](NC(=O)OC(C)(C)C)CC3)C2)cn2c(C)ncc12)C(C)C (mixture of isomers)", "uom": "nM", "IC50": 10.5}
{"compound": "Cc1nc(F)c2c(-c3ccc(F)cc3C(=O)N(CC(F)F)C(C)C)cc(C3CN(C(=O)[C@@H]4CCCCN4)C3)cn12", "uom": "nM", "IC50": 15.5}

P: CCN1CCN(CCC[C@@H](C(C)C)N2CC(c3cc(-c4ccc(F)cc4C(=O)N4CCOC[C@H]4C)c4cnc(C)n4c3)C2)CC1
Q: CCN(C(=O)c1cc(F)ccc1-c1cc(C2CCN(C(=O)[C@H]3N[C@@H]4CC[C@H]3C4)C2)cc2c1cnn2C)C(C)C (stereo partly drawn)
Between the two listed entries P and Q , which has its IC50 at the higher number? // return label of chosen record Q
(Q: 275 nM, P: 126 nM)
